Source of measurements: paper PMC9736874

- Tested target: porcine kidney aminopeptidase N (APN) (Sus scrofa)
- Sequence (P15145 whole entry): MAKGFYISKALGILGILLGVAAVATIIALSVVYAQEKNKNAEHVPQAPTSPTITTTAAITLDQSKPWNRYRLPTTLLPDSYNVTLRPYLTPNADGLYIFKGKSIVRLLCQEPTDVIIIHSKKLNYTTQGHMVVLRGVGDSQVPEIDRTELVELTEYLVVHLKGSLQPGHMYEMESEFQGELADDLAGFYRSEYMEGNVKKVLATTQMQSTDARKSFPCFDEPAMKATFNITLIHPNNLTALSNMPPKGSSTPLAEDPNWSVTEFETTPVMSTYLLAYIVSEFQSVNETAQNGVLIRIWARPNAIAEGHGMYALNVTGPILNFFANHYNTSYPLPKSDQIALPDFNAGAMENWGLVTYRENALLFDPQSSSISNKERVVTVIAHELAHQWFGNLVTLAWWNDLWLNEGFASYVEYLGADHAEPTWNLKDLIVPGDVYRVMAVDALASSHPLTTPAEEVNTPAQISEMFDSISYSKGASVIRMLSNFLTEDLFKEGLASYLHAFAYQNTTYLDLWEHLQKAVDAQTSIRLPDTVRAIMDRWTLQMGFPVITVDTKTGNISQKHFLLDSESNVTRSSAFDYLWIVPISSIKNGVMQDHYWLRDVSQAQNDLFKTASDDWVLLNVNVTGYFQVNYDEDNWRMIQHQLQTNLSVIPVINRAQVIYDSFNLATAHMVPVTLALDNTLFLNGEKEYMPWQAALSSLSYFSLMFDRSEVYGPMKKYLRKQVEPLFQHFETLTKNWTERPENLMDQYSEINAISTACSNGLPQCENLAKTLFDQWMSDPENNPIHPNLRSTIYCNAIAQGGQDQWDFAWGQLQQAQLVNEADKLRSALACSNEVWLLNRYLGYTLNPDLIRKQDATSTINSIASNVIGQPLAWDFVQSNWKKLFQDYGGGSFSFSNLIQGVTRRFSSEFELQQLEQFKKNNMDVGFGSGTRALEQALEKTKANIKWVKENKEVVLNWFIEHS
// thresholds for IC50 classes: one = under 90 nM, two = from 90 nM up to 300 nM, three = 300 nM and over

Check out these entries, answers already filled in.
{"columns": ["Molecule", "Class label"],
 "data": [
  ["NC(=O)N1N=C(c2ccccc2)CC1c1ccccc1OCC(=O)NO (stereo not drawn) [Compound 13b, reference compound]", "two"],
  ["CC(=O)N1N=C(c2ccccc2Br)CC1c1ccccc1OCC(=O)NO (stereo not drawn) [Compound 14a]", "one"],
  ["CC(=O)N1N=C(c2ccccc2I)CC1c1ccccc1OCC(=O)NO (stereo not drawn) [Compound 14i]", "one"],
  ["NC(=O)N1N=C(c2ccccc2OCc2ccc(Br)cc2)CC1c1ccccc1OCC(=O)NO (stereo not drawn) [Compound 14hh]", "three"],
  ["COc1cccc(OC)c1C1=NN(C(C)=O)C(c2ccccc2OCC(=O)NO)C1 (stereo not drawn) [Compound 14m]", "two"],
  ["CC(=O)N1N=C(c2c(Cl)cccc2Cl)CC1c1ccccc1OCC(=O)NO (stereo not drawn) [Compound 14o]", "one"],
  ["CC(=O)N1N=C(c2ccc(Br)cc2)CC1c1ccccc1OCC(=O)NO (stereo not drawn) [Compound 14c]", "three"],
  ["CC(=O)N1N=C(c2ccc(Cl)cc2Cl)CC1c1ccccc1OCC(=O)NO (stereo not drawn) [Compound 14l]", "three"],
  ["CC(=O)N1N=C(c2ccccc2F)CC1c1ccccc1OCC(=O)NO (stereo not drawn) [Compound 14g]", "two"],
  ["NC(=O)N1N=C(c2ccccc2OCc2ccccc2Br)CC1c1ccccc1OCC(=O)NO (stereo not drawn) [Compound 14dd]", "two"]
]}

Now look at this entry.
-- ask The entry to classify is COc1ccc(C2=NN(C(C)=O)C(c3ccccc3OCC(=O)NO)C2)cc1 (stereo not drawn) [Compound 14f] ; which class holds it?
-- reply three
